assay_method_text: AUC 0 to 4 hours of cefsulodin (sodium) suppositories with polyoxyethylene cholesterol ethers (Experiment Example 4)
Format: in vivo, rats
stated_conditions: rat, plasma, 20 mg/kg, rectal suppository 50 mg, 10 % cefsulodin (sodium), no polyoxyethylene cholesterol ether (None), Witepsol H-5
readout_name: AUC(0-t) at 4 h (ng·h/mL)
Give the value, in units of ng·h/mL, as a plain number.

Input NC(=O)c1cc[n+](CC2=C(C(=O)O)N3C(=O)[C@@H](NC(=O)[C@@H](c4ccccc4)S(=O)(=O)[O-])[C@H]3SC2)cc1 [Cefsulodin sodium] . Output AUC(0-t) at 4 h: 500

###

assay_method_text: AUC 0 to 4 hours of cefsulodin (sodium) suppositories with polyoxyethylene cholesterol ethers (Experiment Example 4)
Assay type: in vivo, rats
stated_conditions: rat, plasma, 20 mg/kg, rectal suppository 50 mg, 10 % cefsulodin (sodium), 5 % POE (20) cholesterol ether, Witepsol H-5
readout_name: AUC(0-t) at 4 h

Input NC(=O)c1cc[n+](CC2=C(C(=O)O)N3C(=O)[C@@H](NC(=O)[C@@H](c4ccccc4)S(=O)(=O)[O-])[C@H]3SC2)cc1 [Cefsulodin sodium] . Output AUC(0-t) at 4 h: 43000 ng·h/mL

All values here come from patent EP0033241A2.
